molecular target: CDK2 (Homo sapiens, UniProt P24941); construct: endogenous in cells; host or cells: MDA-MB-231; assay: CDK protein degradation activity (Western blotting), CDK2; type: cell-based; details: MDA-MB-231 cells, 1 μM, 16 hours, Western blot
I'd be grateful if you could share measured Enzyme degradation CDK2 (% remaining) @ 1 μM for these entries.
State the answer as a number, implicitly in %.

# lookup: Cc1cccc(C(=O)N[C@H]2C[C@@H](n3cnc4c(NC5CCN(CCCN6CCN(C(=O)CNc7cccc8c7C(=O)N([C@H]7CCC(=O)NC7=O)C8=O)CC6)CC5)ncnc43)C2)n1 [Compound 38] on CDK2 (Homo sapiens, UniProt P24941), Enzyme degradation CDK2 (% remaining) @ 1 μM = 30

The compound Cc1cccc(C(=O)NC2CC(n3cnc4c(Nc5ccc(N6CCN(CC7CCN(c8cccc9c8C(=O)N([C@H]8CCC(=O)NC8=O)C9=O)CC7)CC6)cc5)ncnc43)C2)n1 (stereo partly shown) [Compound 89] on CDK2 (Homo sapiens, UniProt P24941): Enzyme degradation CDK2 (% remaining) @ 1 μM was 50

GET /values?item= O=C1CC[C@H](N2C(=O)c3cccc(CCCN4CCC(CN5CCN(c6ccc(Nc7ncnc8c7ncn8C7CC(NC(=O)c8cccc(C(F)(F)F)n8)C7)cc6)CC5)CC4)c3C2=O)C(=O)N1 (stereo partly shown) [Compound 426] &system= CDK2 (Homo sapiens, UniProt P24941) returns Enzyme degradation CDK2 (% remaining) @ 1 μM: 10

Summary line: Cc1cccc(C(=O)NC2CC(n3cnc4c(NC5CCN(C(=O)CC6CCN(C(=O)CNc7cccc8c7C(=O)N([C@H]7CCC(=O)NC7=O)C8=O)CC6)CC5)ncnc43)C2)n1 (stereo partly shown) [Compound 52] , CDK2 (Homo sapiens, UniProt P24941), reported Enzyme degradation CDK2 (% remaining) @ 1 μM = 40

Fill in: CDK2 (Homo sapiens, UniProt P24941) Enzyme degradation CDK2 (% remaining) @ 1 μM for Cc1cccc(C(=O)N[C@H]2C[C@@H](n3cnc4c(NCc5cccc(OCC6CCN(C(=O)CNc7ccc8c(c7)C(=O)N(C7CCC(=O)NC7=O)C8=O)CC6)c5)ncnc43)C2)n1 (stereo partly shown) [Compound 96] = 40

Enzyme degradation CDK2 (% remaining) @ 1 μM on CDK2 (Homo sapiens, UniProt P24941) for O=C1CC[C@H](N2C(=O)c3cc(F)c(N4CCC(C(=O)N5CCC(CN6CCN(c7ccc(Nc8ncnc9c8ncn9[C@H]8C[C@@H](NC(=O)c9c(Cl)cccc9Cl)C8)cc7)CC6)CC5)CC4)cc3C2=O)C(=O)N1 [Compound 462] is 20

Given the compound Cc1cccc(C(=O)N[C@H]2C[C@@H](n3cnc4c(Nc5ccc(N6CCN(C7CC8(CCN(C(=O)C9CN(c%10ccc%11c(c%10)C(=O)N(C%10CCC(=O)NC%10=O)C%11=O)C9)CC8)C7)CC6)cc5)ncnc43)C2)n1 (stereo partly shown) [Compound 387] and test system CDK2 (Homo sapiens, UniProt P24941), the measured Enzyme degradation CDK2 (% remaining) @ 1 μM is 40

Reported Enzyme degradation CDK2 (% remaining) @ 1 μM (CDK2 (Homo sapiens, UniProt P24941)) for entry Cc1cccc(C(=O)N[C@H]2C[C@@H](n3cnc4c(Nc5ccc(N6CCN(CCC7CCN(c8ccc9nnn([C@H]%10CCC(=O)NC%10=O)c(=O)c9c8)CC7)CC6)cc5)ncnc43)C2)n1 [Compound 382] is 30

The compound Cc1cccc(C(=O)NC2CC(n3cnc4c(NCc5ccc(N6CCN(CC7CCN(c8cccc9c8C(=O)N([C@H]8CCC(=O)NC8=O)C9=O)CC7)CC6)cc5)ncnc43)C2)n1 (stereo partly shown) [Compound 150] , when measured on CDK2 (Homo sapiens, UniProt P24941), yielded Enzyme degradation CDK2 (% remaining) @ 1 μM of 80

Recorded Enzyme degradation CDK2 (% remaining) @ 1 μM for O=C1CC[C@H](N2C(=O)c3cccc(NCC(=O)N4CCC(CN5CCC(CNc6ncnc7c6ncn7[C@H]6C[C@@H](NC(=O)c7c(Cl)cccc7Cl)C6)CC5)CC4)c3C2=O)C(=O)N1 [Compound 170] on CDK2 (Homo sapiens, UniProt P24941) was 10

Considering Cc1cccc(C(=O)NC2CC(n3cnc4c(Nc5ccc(N6CCN(CC7CCN(C(=O)CNc8ccc9c(c8)C(=O)N([C@H]8CCC(=O)NC8=O)C9=O)CC7)CC6)cc5)ncnc43)C2)n1 (stereo partly shown) [Compound 92] , its Enzyme degradation CDK2 (% remaining) @ 1 μM with CDK2 (Homo sapiens, UniProt P24941) was recorded as 20

Record for Cc1cccc(C(=O)N[C@H]2C[C@@H](n3cnc4c(NC5CCN(C(=O)CC6CCN(C(=O)COc7cccc8c7C(=O)N([C@H]7CCC(=O)NC7=O)C8=O)CC6)CC5)ncnc43)C2)n1 [Compound 50] under target or system CDK2 (Homo sapiens, UniProt P24941): Enzyme degradation CDK2 (% remaining) @ 1 μM reported as 40
